- method: NIH-3T3 fibroblast cytotoxicity, dose response, cytotoxicity control, cell-based, fluorescence, Alamar Blue, secondary assay (AID 2327);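 also: NIH-3T3 mouse fibroblasts cultured with fluconazole at 8 µg/mL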
- Type: functional
Active and inactive are the calls of the source. Rule as the data show it: actives have a measured EC50 and inactives only a lower limit.
Would you kindly list EC50 for each of these compounds?

Would you please look over these solved cases?
Cc1[nH]c2ccccc2c1/C=C/c1cc[n+](C)cc1
120 µM (inconclusive)
COc1ccc(/C=C/c2cc(-c3ccc(C)cc3)o[n+]2C)cc1
> 160 µM (inactive)
COc1ccc(C2C(C#N)=C(N)Oc3c2ccc2cccnc32)cc1OC (stereo unspecified)
19.1 µM (inconclusive)
O=C(Nc1cc2c3c(c1)C1CCCC1CN3CC1CCCC21)c1ccccc1 (stereo unspecified)
> 160 µM (inactive)
CCC(=O)NC(c1cccs1)c1cc([N+](=O)[O-])c2cccnc2c1O (stereo unspecified)
33.6 µM (active)

Can you share its EC50? I mean this compound: COC(=O)/C(=C\c1ccc([N+](=O)[O-])o1)NC(=O)c1ccccc1 > 160 µM (inactive)

###

- method: Luminescence Cell-Based Dose Response HTS to Identify Inhibitors of 5'UTR Stem-Loop Driven Prion Protein mRNA Translation in H4 Neuroglioblastoma Cells. [Related pubchem assays: 1827 (Project Summary), 1813 (Primary HTS)]
- Format: functional
The source made the active and inactive calls. Rule as the data show it: actives have a measured EC50 and inactives only a lower limit.
Provide the recorded EC50 for the entries that follow.

Here are 2 molecules together with their reported answers.
CC1(C)N=C(N)N=C(N)N1c1ccccc1
15.6 µM (active)
COc1ccc(/C=C/c2cc(-c3ccc(C)cc3)o[n+]2C)cc1
12.2 µM (active)

Here's the next entry for you.
Bench note: what EC50 did Cc1csc(NC(=O)C2COc3ccccc3O2)n1 (stereo not drawn) show? 10.7 µM (inconclusive)

###

- system_under_test: Zinc finger protein mex-5 (Caenorhabditis elegans)
- Sequence (Q9XUB2 whole entry): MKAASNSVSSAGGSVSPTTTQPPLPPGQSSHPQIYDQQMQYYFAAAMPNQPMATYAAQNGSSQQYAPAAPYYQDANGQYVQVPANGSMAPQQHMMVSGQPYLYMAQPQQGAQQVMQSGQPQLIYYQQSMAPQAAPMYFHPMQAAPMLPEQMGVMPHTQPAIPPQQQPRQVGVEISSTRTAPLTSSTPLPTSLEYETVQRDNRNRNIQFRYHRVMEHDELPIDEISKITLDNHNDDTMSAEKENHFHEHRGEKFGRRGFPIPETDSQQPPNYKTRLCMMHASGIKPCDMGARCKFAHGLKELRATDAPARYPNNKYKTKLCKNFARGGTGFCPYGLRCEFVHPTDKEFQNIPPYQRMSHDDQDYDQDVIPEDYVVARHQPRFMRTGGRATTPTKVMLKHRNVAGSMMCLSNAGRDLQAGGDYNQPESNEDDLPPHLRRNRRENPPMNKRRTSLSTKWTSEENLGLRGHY
- method: MEX-5/TCR-2 RNA interaction inhibitors, dose response, biochemical, C. elegans, fluorescence polarization (AID 1960)
Activity calls are given as the source filed them. Rule as the data show it: actives have a measured EC50 and inactives only a lower limit.
Give EC50 for every item shown.

COc1ccc(-c2nnc(Nc3nc4c(OC)cccc4s3)o2)c(OC)c1
61.3 µM (active)
O=C(O)c1cc(Cl)c2c(c1)[C@@H]1C=CC[C@@H]1[C@H](c1ccc(S(=O)(=O)N3CCOCC3)cc1)N2
29.7 µM (active)
O=C(O)CCCCCn1c(SCC(=O)c2ccc(O)c(O)c2)nc2ccsc2c1=O
61.6 µM (active)

Consider the record given below.
Item: O=C1C(=Cc2cccn2-c2ccccc2)C(=O)c2ccccc21 Test system: Zinc finger protein mex-5 (Caenorhabditis elegans) Read-out: EC50 Value: ? 175 µM (active)
